biological target: Fatty acid synthase (Homo sapiens) (UniProt P49327); test: FAS thioesterase domain inhibitors, SAR follow-up, biochemical, endpoint fluorescence intensity, powder samples (AID 652164); conditions: recombinant FAS-TE, OMFH substrate fluorescence
Sequence (P49327 whole entry, looked up, the tested form may be a part): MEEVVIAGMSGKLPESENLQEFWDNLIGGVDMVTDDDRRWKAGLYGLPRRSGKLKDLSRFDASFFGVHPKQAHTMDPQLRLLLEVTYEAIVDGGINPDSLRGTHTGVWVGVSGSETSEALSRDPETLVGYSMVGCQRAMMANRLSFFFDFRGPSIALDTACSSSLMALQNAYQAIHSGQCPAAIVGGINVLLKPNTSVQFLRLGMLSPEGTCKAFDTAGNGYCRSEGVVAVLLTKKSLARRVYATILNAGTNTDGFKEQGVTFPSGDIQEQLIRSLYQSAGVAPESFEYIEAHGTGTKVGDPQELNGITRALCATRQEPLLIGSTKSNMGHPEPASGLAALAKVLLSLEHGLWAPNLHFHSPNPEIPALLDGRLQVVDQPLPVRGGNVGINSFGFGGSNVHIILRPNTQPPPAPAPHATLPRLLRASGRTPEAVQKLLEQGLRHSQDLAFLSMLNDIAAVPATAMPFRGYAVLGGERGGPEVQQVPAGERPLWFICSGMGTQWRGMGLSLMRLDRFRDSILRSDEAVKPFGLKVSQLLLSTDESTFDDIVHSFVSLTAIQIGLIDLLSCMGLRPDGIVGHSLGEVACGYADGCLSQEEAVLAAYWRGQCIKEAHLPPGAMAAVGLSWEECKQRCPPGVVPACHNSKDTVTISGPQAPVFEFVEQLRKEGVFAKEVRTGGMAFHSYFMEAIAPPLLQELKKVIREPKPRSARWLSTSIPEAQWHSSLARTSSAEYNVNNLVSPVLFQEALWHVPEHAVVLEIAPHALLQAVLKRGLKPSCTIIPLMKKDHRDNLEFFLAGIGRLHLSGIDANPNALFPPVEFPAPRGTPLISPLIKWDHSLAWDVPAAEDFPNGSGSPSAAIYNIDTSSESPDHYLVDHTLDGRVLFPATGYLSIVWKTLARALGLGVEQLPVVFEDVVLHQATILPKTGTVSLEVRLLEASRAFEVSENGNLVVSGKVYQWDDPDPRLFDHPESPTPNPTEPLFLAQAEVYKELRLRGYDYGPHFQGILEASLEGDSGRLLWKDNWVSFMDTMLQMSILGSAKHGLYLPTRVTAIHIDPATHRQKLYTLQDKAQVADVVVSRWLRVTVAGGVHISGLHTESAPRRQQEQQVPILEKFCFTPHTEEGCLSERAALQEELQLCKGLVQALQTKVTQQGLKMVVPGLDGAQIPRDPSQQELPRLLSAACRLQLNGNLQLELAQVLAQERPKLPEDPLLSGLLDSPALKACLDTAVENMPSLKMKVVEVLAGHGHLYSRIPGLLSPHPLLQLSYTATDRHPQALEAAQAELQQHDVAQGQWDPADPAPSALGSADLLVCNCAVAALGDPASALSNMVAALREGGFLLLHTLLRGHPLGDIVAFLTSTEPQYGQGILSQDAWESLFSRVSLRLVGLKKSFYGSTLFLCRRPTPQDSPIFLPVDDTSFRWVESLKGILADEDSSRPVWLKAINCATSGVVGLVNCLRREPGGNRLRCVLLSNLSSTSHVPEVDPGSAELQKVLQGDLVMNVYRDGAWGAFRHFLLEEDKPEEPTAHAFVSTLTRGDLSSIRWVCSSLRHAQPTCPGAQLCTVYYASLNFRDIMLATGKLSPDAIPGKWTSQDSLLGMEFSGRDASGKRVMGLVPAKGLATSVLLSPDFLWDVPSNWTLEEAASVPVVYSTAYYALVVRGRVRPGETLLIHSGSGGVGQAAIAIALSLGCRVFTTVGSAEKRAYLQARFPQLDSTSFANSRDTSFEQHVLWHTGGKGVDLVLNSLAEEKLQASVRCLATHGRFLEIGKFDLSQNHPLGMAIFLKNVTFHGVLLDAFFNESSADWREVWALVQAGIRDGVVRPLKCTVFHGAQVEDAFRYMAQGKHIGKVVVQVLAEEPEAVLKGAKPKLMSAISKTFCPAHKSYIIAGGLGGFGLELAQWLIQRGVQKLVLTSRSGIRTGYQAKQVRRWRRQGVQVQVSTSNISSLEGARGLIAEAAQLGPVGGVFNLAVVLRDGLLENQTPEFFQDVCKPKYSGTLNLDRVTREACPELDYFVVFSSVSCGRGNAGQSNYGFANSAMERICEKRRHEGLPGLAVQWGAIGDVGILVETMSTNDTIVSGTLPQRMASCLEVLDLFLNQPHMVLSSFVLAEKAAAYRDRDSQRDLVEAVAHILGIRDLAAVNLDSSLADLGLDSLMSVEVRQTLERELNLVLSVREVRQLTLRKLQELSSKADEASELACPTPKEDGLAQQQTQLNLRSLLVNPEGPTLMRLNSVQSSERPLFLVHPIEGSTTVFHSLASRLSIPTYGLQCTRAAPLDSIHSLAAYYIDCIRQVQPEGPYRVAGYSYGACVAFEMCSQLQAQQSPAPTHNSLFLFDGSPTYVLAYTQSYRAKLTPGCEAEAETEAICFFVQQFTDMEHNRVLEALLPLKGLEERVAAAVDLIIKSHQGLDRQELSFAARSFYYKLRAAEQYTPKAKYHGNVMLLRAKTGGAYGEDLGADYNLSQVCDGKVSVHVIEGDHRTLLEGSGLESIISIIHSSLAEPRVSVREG
pIC50: −log10 of the molar value.

{"columns": ["molecule", "pIC50"],
 "data": [
  ["O=C(Nc1nc(-c2ccc(S(=O)(=O)N3CCCC3)cc2)cs1)C1CC1", 6.25],
  ["CCC(C)C(=O)Nc1nc(-c2ccc(S(=O)(=O)N3CCOCC3)cc2)cs1 (stereo not given)", 6.51],
  ["CC(C)C(=O)Nc1nc(-c2ccc(S(=O)(=O)N(C)C)cc2)cs1", 6.24],
  ["CCCCC(=O)Nc1nc(-c2ccc(S(=O)(=O)N3CCOCC3)cc2)cs1", 6.26],
  ["CCC(C)C(=O)Nc1nc(-c2ccc(S(=O)(=O)N(CC)CC)cc2)cs1 (stereo not given)", 6.52]
]}
